# Tested on: A549 cells (EGFR wild-type non-small-cell lung cancer)
# TEST_SUMMARY: MTT cell viability assay, A549 cells
# Format: cell-based
# RECORDED_CONDITIONS: Homo sapiens, A549, 72 h, read-out: IC50 A549
TEST_READOUT: IC50 (µM)

{"columns": ["MOL", "TEST_READOUT", "TEST_RESULT"],
 "data": [
  ["CN(C)C/C=C/C(=O)Nc1cc2c(Nc3ccc(F)c(Cl)c3)ncnc2cc1O[C@H]1CCOC1", "IC50", 13.1]
]}
